Entry source: ChEMBL document CHEMBL3885861

Species on record: Rattus norvegicus
assay notes: Open TG-GATES - Regimen: Daily Repeat
Type: toxicity, organism-based, Sprague-Dawley
Set-up: regimen Daily Repeat, gender Male, age 6 weeks
test settings: in vivo, po, 0 mg/kg, […], tissue Blood, route gavage, dose level Control, time 14 day
In this section we review reported Hb values for a set of molecules.
Provide the reading as a plain figure in g/dL.

Examples from the recorded data:
{"columns": ["molecule", "Hb (g/dL)"],
 "data": [
  ["O=C(O)COc1nn(Cc2ccccc2)c2ccccc12", 14.5],
  ["CC(CCc1ccccc1)NCC(O)c1ccc(O)c(C(N)=O)c1 (configuration not stated)", 14.6],
  ["CC(=O)Nc1ccc2c(c1)Cc1ccccc1-2", 14.7],
  ["CCN(CC)N=O", 14.7],
  ["CC(=O)N1CCN(c2ccc(OCC3COC(Cn4ccnc4)(c4ccc(Cl)cc4Cl)O3)cc2)CC1 (configuration not stated)", 14],
  ["CC(N)=O [ACETAMIDE]", 13.4]
]}

# context switch: different molecule, same Hb
# lookup: Hb of CC[C@@H](CO)NCCN[C@@H](CC)CO
14.4
